// provenance: the supplement of paper PMC9112550

# System: Escherichia coli TOP10
# assay-method-text: shrunken log2 fold change of peptide-encoding DNA abundance (4.5 h post-induction vs induction); higher = less antimicrobial activity (less host growth inhibition)
# run-conditions: time post-induction: 4.5 h; library: site-saturation at positions 5, 18, 19, 20
Label scheme for shrunken log2 fold change: lower than 0.1 is F, 0.1 and above is T.

# sequence, class-name
records = [
    ("RRIRKRPPRLPRPRPRPFWKPRP", "F"),
    ("RRIRDRPPRLPRPRPRPLNVPRP", "F"),
    ("RRIRERPPRLPRPRPRPRYGPRP", "T"),
    ("RRIRKRPPRLPRPRPRPNCTPRP", "T"),
    ("RRIRFRPPRLPRPRPRPFTWPRP", "F"),
    ("RRIRYRPPRLPRPRPRPTWHPRP", "F"),
    ("RRIRKRPPRLPRPRPRPIAGPRP", "F"),
    ("RRIRQRPPRLPRPRPRPFMQPRP", "F"),
    ("RRIRQRPPRLPRPRPRPYCCPRP", "F"),
    ("RRIRTRPPRLPRPRPRPMLKPRP", "F"),
    ("RRIRPRPPRLPRPRPRPCVWPRP", "F"),
    ("RRIRYRPPRLPRPRPRPVVGPRP", "F"),
    ("RRIRYRPPRLPRPRPRPYVKPRP", "F"),
    ("RRIRDRPPRLPRPRPRPVTVPRP", "F"),
    ("RRIRNRPPRLPRPRPRPRPTPRP", "T"),
    ("RRIRCRPPRLPRPRPRPMHYPRP", "F"),
    ("RRIRVRPPRLPRPRPRPFPEPRP", "F"),
    ("RRIRMRPPRLPRPRPRPWQGPRP", "T"),
    ("RRIRRRPPRLPRPRPRPLPFPRP", "F"),
    ("RRIRMRPPRLPRPRPRPHVPPRP", "T"),
    ("RRIRGRPPRLPRPRPRPKQGPRP", "T"),
    ("RRIRNRPPRLPRPRPRPYSQPRP", "F"),
    ("RRIRIRPPRLPRPRPRPKQNPRP", "F"),
    ("RRIRERPPRLPRPRPRPPLHPRP", "F"),
    ("RRIRKRPPRLPRPRPRPMNDPRP", "T"),
    ("RRIRMRPPRLPRPRPRPGCKPRP", "T"),
    ("RRIRYRPPRLPRPRPRPTLWPRP", "T"),
    ("RRIRQRPPRLPRPRPRPMFIPRP", "F"),
    ("RRIRKRPPRLPRPRPRPHMEPRP", "F"),
    ("RRIRVRPPRLPRPRPRPKQNPRP", "T"),
    ("RRIRARPPRLPRPRPRPCMGPRP", "F"),
    ("RRIRNRPPRLPRPRPRPHPAPRP", "T"),
    ("RRIRWRPPRLPRPRPRPSCWPRP", "F"),
    ("RRIRARPPRLPRPRPRPTNEPRP", "T"),
    ("RRIRQRPPRLPRPRPRPAKEPRP", "F"),
    ("RRIRFRPPRLPRPRPRPDPEPRP", "F"),
    ("RRIRKRPPRLPRPRPRPRFEPRP", "T"),
]

====

# System: Escherichia coli TOP10
# assay-method-text: shrunken log2 fold change of peptide-encoding DNA abundance (4.5 h post-induction vs induction); higher = less antimicrobial activity (less host growth inhibition)
# run-conditions: time post-induction: 4.5 h; library: site-saturation at positions 5, 18, 19, 20
Each entry below lists one item and its recorded shrunken log2 fold change value.

# sequence, assayed-system, shrunken log2 fold change
rows = [
    ("RRIRKRPPRLPRPRPRPIYLPRP", "Escherichia coli TOP10", -0.305),
    ("RRIRYRPPRLPRPRPRPGEEPRP", "Escherichia coli TOP10", 0.0322),
    ("RRIRSRPPRLPRPRPRPAADPRP", "Escherichia coli TOP10", 0.252),
    ("RRIRGRPPRLPRPRPRPIADPRP", "Escherichia coli TOP10", 0.16),
    ("RRIRERPPRLPRPRPRPPQMPRP", "Escherichia coli TOP10", 0.208),
]

====

Each entry below lists one item and its recorded shrunken log2 fold change value.
# Tested on: Escherichia coli TOP10;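 note: peptides expressed intracellularly from a pBAD plasmid library in pooled LB shake-flask culture, induced with 0.3% L-arabinose, DNA abundance read by NGS, three biological replicates, DESeq2 with apeglm shrinkage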
# assay-method-text: shrunken log2 fold change of peptide-encoding DNA abundance (4.5 h post-induction vs induction); higher = less antimicrobial activity (less host growth inhibition)
# run-conditions: time post-induction: 4.5 h; library: site-saturation at positions 5, 18, 19, 20
measurement-type: shrunken log2 fold change

# sequence, assayed-system, recorded-measurement
measured = [
    ("RRIRGRPPRLPRPRPRPKWSPRP", "Escherichia coli TOP10", 0.564),
    ("RRIRKRPPRLPRPRPRPTQMPRP", "Escherichia coli TOP10", 0.8),
    ("RRIRQRPPRLPRPRPRPLNMPRP", "Escherichia coli TOP10", -0.423),
    ("RRIRGRPPRLPRPRPRPPMFPRP", "Escherichia coli TOP10", 0.295),
    ("RRIRCRPPRLPRPRPRPANLPRP", "Escherichia coli TOP10", -0.687),
    ("RRIRKRPPRLPRPRPRPGVNPRP", "Escherichia coli TOP10", 0.213),
    ("RRIRLRPPRLPRPRPRPWSGPRP", "Escherichia coli TOP10", -0.000803),
    ("RRIRCRPPRLPRPRPRPAAYPRP", "Escherichia coli TOP10", -0.101),
    ("RRIRTRPPRLPRPRPRPDHLPRP", "Escherichia coli TOP10", 0.0101),
    ("RRIRIRPPRLPRPRPRPVHCPRP", "Escherichia coli TOP10", -0.335),
    ("RRIRWRPPRLPRPRPRPESGPRP", "Escherichia coli TOP10", 0.347),
    ("RRIRARPPRLPRPRPRPWCTPRP", "Escherichia coli TOP10", -0.284),
    ("RRIRARPPRLPRPRPRPQHWPRP", "Escherichia coli TOP10", 0.0917),
    ("RRIRVRPPRLPRPRPRPYKFPRP", "Escherichia coli TOP10", -0.475),
    ("RRIRFRPPRLPRPRPRPVRAPRP", "Escherichia coli TOP10", 0.495),
    ("RRIRTRPPRLPRPRPRPAGCPRP", "Escherichia coli TOP10", 0.316),
    ("RRIRKRPPRLPRPRPRPNMFPRP", "Escherichia coli TOP10", -0.155),
    ("RRIRVRPPRLPRPRPRPRIKPRP", "Escherichia coli TOP10", -0.125),
    ("RRIRWRPPRLPRPRPRPCHGPRP", "Escherichia coli TOP10", 0.0694),
    ("RRIRCRPPRLPRPRPRPCWIPRP", "Escherichia coli TOP10", -0.464),
    ("RRIRDRPPRLPRPRPRPLHAPRP", "Escherichia coli TOP10", 0.317),
    ("RRIRGRPPRLPRPRPRPKWLPRP", "Escherichia coli TOP10", 0.749),
    ("RRIRQRPPRLPRPRPRPDCKPRP", "Escherichia coli TOP10", -0.0311),
    ("RRIRSRPPRLPRPRPRPWINPRP", "Escherichia coli TOP10", -0.205),
    ("RRIRYRPPRLPRPRPRPPSKPRP", "Escherichia coli TOP10", -0.409),
    ("RRIRPRPPRLPRPRPRPFMAPRP", "Escherichia coli TOP10", -0.305),
    ("RRIRHRPPRLPRPRPRPRAQPRP", "Escherichia coli TOP10", 0.0972),
    ("RRIRSRPPRLPRPRPRPMTNPRP", "Escherichia coli TOP10", -0.309),
    ("RRIRARPPRLPRPRPRPRQMPRP", "Escherichia coli TOP10", 1.2),
    ("RRIRGRPPRLPRPRPRPQMWPRP", "Escherichia coli TOP10", 0.891),
    ("RRIRNRPPRLPRPRPRPWRSPRP", "Escherichia coli TOP10", 0.111),
    ("RRIRERPPRLPRPRPRPPVFPRP", "Escherichia coli TOP10", -0.152),
    ("RRIRVRPPRLPRPRPRPIVWPRP", "Escherichia coli TOP10", -0.328),
    ("RRIRFRPPRLPRPRPRPRRVPRP", "Escherichia coli TOP10", 0.258),
    ("RRIRMRPPRLPRPRPRPCGVPRP", "Escherichia coli TOP10", 0.714),
    ("RRIRHRPPRLPRPRPRPLKHPRP", "Escherichia coli TOP10", -0.869),
    ("RRIRERPPRLPRPRPRPAHQPRP", "Escherichia coli TOP10", -0.136),
    ("RRIRQRPPRLPRPRPRPMNGPRP", "Escherichia coli TOP10", -0.0825),
    ("RRIRHRPPRLPRPRPRPLGHPRP", "Escherichia coli TOP10", -0.499),
    ("RRIRPRPPRLPRPRPRPNLYPRP", "Escherichia coli TOP10", -0.276),
    ("RRIRYRPPRLPRPRPRPSVCPRP", "Escherichia coli TOP10", -0.769),
    ("RRIRLRPPRLPRPRPRPSMHPRP", "Escherichia coli TOP10", -0.489),
    ("RRIRKRPPRLPRPRPRPGYKPRP", "Escherichia coli TOP10", 0.236),
    ("RRIRIRPPRLPRPRPRPFEGPRP", "Escherichia coli TOP10", -0.221),
    ("RRIRPRPPRLPRPRPRPNQFPRP", "Escherichia coli TOP10", -0.204),
    ("RRIRNRPPRLPRPRPRPSPMPRP", "Escherichia coli TOP10", -0.0245),
    ("RRIRGRPPRLPRPRPRPRDIPRP", "Escherichia coli TOP10", 0.373),
    ("RRIRIRPPRLPRPRPRPGAIPRP", "Escherichia coli TOP10", -0.0678),
    ("RRIRFRPPRLPRPRPRPDRQPRP", "Escherichia coli TOP10", 0.0398),
    ("RRIRDRPPRLPRPRPRPTCHPRP", "Escherichia coli TOP10", 0.0627),
    ("RRIRLRPPRLPRPRPRPYKEPRP", "Escherichia coli TOP10", -0.0365),
    ("RRIRGRPPRLPRPRPRPCLCPRP", "Escherichia coli TOP10", 0.655),
]
